Entry source: patent US12005127B2

Below, each entry is listed alongside its reported pIC50.
ASSAY SYSTEM: DNA-PK (Homo sapiens)
METHOD: DNA-PK cellular assay (pDNA-PK Ser2056 sandwich ELISA, NCS-induced DSBs)
Assay type: cell-based
Set-up: endogenous in cells; host or cells: A549 (human NSCLC)
EXPERIMENTAL PARAMETERS: Table 1; pDNA-PK (Ser2056) in A549 cells, NCS 50 ng/ml, 15 minutes
pIC50: −log10 of the molar value.
PROPERTY: pIC50

SMILES INPUT	RECORDED RESULT
c1cnc(O[C@H]2CC[C@H](Oc3cc(N4CCOCC4)cc4ncncc34)CC2)nc1	> 7.00
Cc1nccc(N[C@H]2CC[C@@H](Oc3cc(N4CCOCC4)cc4ncncc34)CC2)n1	> 7.00
COc1ncnc2cc(N3CCOCC3)cc(O[C@H]3CC[C@@H](Nc4nc(C)nc5c4OCC5)CC3)c12	> 7.00
Cc1nc2c(c(N[C@H]3CC[C@@H](Oc4cc(N5CCOCC5)cc5ncncc45)CC3)n1)OCC2	> 7.00
Cc1nccc(N[C@H]2CC[C@@H](Oc3cc(N4CCOCC4)cc4nc(C)ncc34)CC2)n1	6.00 to 7.00
Cc1ncc2c(O[C@H]3CC[C@@H](NC(=O)OC(C)(C)C)CC3)cc(N3CCOCC3)cc2n1	≤ 6.00
CNC(=O)c1ccnc(N[C@H]2CC[C@@H](Oc3cc(N4CCOCC4)cc4nc(C)ncc34)CC2)n1	> 7.00
c1cnc(O[C@H]2CC[C@@H](Oc3cc(N4CCOCC4)cc4ncncc34)CC2)nc1	> 7.00
CC1(C(=O)N[C@H]2CC[C@@H](Oc3cc(N4CCOCC4)cc4ncncc34)CC2)CC1	> 7.00
c1ncc2c(O[C@H]3CC[C@@H](Nc4ncnc5ccoc45)CC3)cc(N3CCOCC3)cc2n1	> 7.00
CN1CCN(c2cc(N[C@H]3CC[C@@H](Oc4cc(N5CCOCC5)cc5ncncc45)CC3)ncn2)CC1	> 7.00
CNC(=O)c1ccnc(N[C@H]2CC[C@@H](Oc3cc(N4CCOCC4)cc4ncnc(C)c34)CC2)n1	> 7.00
